# target desc: EBP (Homo sapiens, UniProt P19235)
# Construct: one encoding amino acids 1-225 of the extracellular domain of the mature hEPOR; made in house; host or cells: E. coli BL21(DE3)pLysS (plasmid pSAM3)
# Sequence (P19235 25-249): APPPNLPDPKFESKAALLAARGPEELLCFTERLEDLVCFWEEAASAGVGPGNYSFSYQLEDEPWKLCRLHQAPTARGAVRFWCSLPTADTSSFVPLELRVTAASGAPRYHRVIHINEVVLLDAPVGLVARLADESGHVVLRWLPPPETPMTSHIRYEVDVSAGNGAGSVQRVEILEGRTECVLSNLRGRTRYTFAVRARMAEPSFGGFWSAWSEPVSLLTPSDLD
# assay protocol: EBP bead competitive binding assay vs [125I]EPO
# measurement setup: 0.5 nM [125I]EPO, 2.5% DMSO, overnight, room temperature
# Description: EBP as produced by the above method contains one free sulfhydryl group which can be modified without affecting the solution phase binding of ligand. […] The amount of EBP which was covalently bound to the beads was determined by comparing the OD280 of the original EBP solution to the total OD280 recovered in the reaction supernatant and the two 20 ml washes. […]
pIC50: −log10 of the molar value. Bridge positions count the residues as written; N and C are the ends. Square brackets hold non-standard residues; d marks the D form. Ends that are not written are not given here. Tyr(3,5-Br2) = N[C@@H](Cc1cc(Br)c(O)c(Br)c1)C(=O)O
Respond with True for pIC50 values of 5 and above, False for values below.

Study these solved cases before continuing.
ordered_residues="GGLYACHMGPMTWVCQPLRG (GGKYACHMGPMTWVCQPKRG) [RWJ 61718]" discrete_label=True
ordered_residues="GGTYSCHFGPLTWVCKPQGG [RWJ 61233]" discrete_label=True
ordered_residues="GGTXSCHFGPLTWVCKPQGG (GGT[Tyr(3,5-Br2)]SCHFGPLTWVCKPQGG-NH2; disulfide 6-15 (inferred)) [RWJ 62021, X = 3,5-dibromo-tyr]" discrete_label=False

Here is the next item to consider.
Record YSCHFGPLTWVCK (YSCHFGPLYWVCK) [RWJ 61279] ; criterion: pIC50 no lower than 5. Met?
False

Source: patent US6221608A
